B1: CPEB3 Ribozyme (parent)
chain: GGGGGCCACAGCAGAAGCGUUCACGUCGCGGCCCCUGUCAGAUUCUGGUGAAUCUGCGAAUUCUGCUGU

# Variants of: B1
# ASSAY_OVERVIEW: self-cleavage, relative activity (ratio to wild type); higher = more cleavage; co-transcriptional
Threshold check on self-cleavage: at or above 0.3 gives 1 (yes), strictly below gives 0 (no).

These recorded examples may help you get a feel for the data.
Q: Is self-cleavage for GGGGGCCACAGCAGAAGCGUUCACGUCGCGGCCCCUGUCAGAUUCUGGUGAAUCUUCUAAUUCUGCUGU [G56U G58U] at or above 0.3?
Result: 1 (yes)

Q: Is self-cleavage for GGGGGCCACAACAGAAGUGUUCACGUCGCGGCCCCUGUCAGAUUCUGGUGAAUCUGCGAAUUCUGCUGU [G11A C18U] at or above 0.3?
Result: 0 (no)

Q: Is self-cleavage for GUGGGCCACAGCAGAAGCGUUCACGUCGCGGCUCCUGUCAGAUUCUGGUGAAUCUGCGAAUUCUGCUGU [G2U C33U] at or above 0.3?
Result: 0 (no)

Q: Is self-cleavage for GGGGGCCACAGCAGAAGCGUUCACGUCGCGGCCCCUGUCAGAUUCUGGUGGAUCUGCGAGUUCUGCUGU [A51G A60G] at or above 0.3?
Result: 1 (yes)

Q: Is self-cleavage for GGGGGCUACAGCAGAAGCGUUCACGUCGCGGCCCCUGUCAGAUUCUGGUGAAUCUGCGCAUUCUGCUGU [C7U A59C] at or above 0.3?
Result: 1 (yes)

Q: Is self-cleavage for GGGGUCCACAGCAUAAGCGUUCACGUCGCGGCCCCUGUCAGAUUCUGGUGAAUCUGCGAAUUCUGCUGU [G5U G14U] at or above 0.3?
Result: 0 (no)

***
Q: Is self-cleavage for GGGGGCCACAGCAGAAGCUUUCACGUCGCGGCCCCUGUCAGAUUCUGGUGAAUCUGCGAAUGCUGCUGU [G19U U62G] at or above 0.3?
Result: 0 (no)

Q: Is self-cleavage for GGGGGCCACAGCAGAAGCGUUCACGUCGCGGCCCCUAUCUGAUUCUGGUGAAUCUGCGAAUUCUGCUGU [G37A A40U] at or above 0.3?
Result: 0 (no)

Q: Is self-cleavage for GGGGGCCACAGCAGAAGCGUUCACGUCGCGGCCCCUGUCAGAUUCUGGUGAAACUGCGAACUCUGCUGU [U53A U61C] at or above 0.3?
Result: 1 (yes)
